// reported protein stability index per item
B1: C1orf137 (parent)
chain: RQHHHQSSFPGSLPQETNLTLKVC

variants of: B1; assay: protein stability index of a GFP-peptide fusion (GPS, HEK-293T) (PSI 1-6); higher = more stable; conditions: c terminus: a fixed tail appended;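 further: lentivirally expressed fusions sorted by FACS into six bins by GFP to DsRed ratio, PSI derived from sequencing read proportions per bin multiplied by bin number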
Please state the value as a number alone, without comment.

protein stability index measured on L13R = 2.97

protein stability index measured on Q15V = 2.6

protein stability index measured on C24G = 3.75
